meta.source: PubChem BioAssay (Tox21)

- ASSAYED_TARGET: Cytochrome P450 2C19 (Homo sapiens)
- ASSAY_EXPLANATION: Cytochrome P450 Family 2 Subfamily C Member 19 (CYP2C19) small molecule antagonists: luciferase reporter qHTS assay (AID 1671197); note: nearly all actives have a fitted effect of over 65% in size
- MEASUREMENT_PARAMETERS: P450-Glo CYP2C19 enzyme, luciferin luminescence, 1 h; series mostly up to 115 µM
Inconclusive results are not listed. The source made the active and inactive calls. Calls come from the whole dose curve; as a rule, active = well fitted inhibition curve with a large enough effect in the repeat runs; inconclusive = weak or mixed curves; inactive = no such curve, though single readings can be large or run the other way.
Please state which outcome applies, choosing from TRUE for active, FALSE for inactive

COMPOUND: CNC(=O)O/N=C(\C)C(C)S(C)(=O)=O (stereo not given)
CLASS_LABEL: FALSE
--
COMPOUND: BrCC(Br)(Br)Br
CLASS_LABEL: FALSE
--
COMPOUND: BrCCCBr
CLASS_LABEL: FALSE
--
COMPOUND: CC1(C)C(C=C(Cl)Cl)C1C(=O)OC(C#N)c1ccc(F)c(Oc2ccccc2)c1 (stereo not given)
CLASS_LABEL: TRUE
--
COMPOUND: c1ccc2c(c1)cc1ccc3cccc4ccc2c1c34
CLASS_LABEL: FALSE
--
COMPOUND: c1ccc(Nc2ccc(Nc3ccccc3)cc2)cc1
CLASS_LABEL: TRUE

Input: I would be grateful if you could indicate the recorded call for `CCc1cccc(C)c1N(C(=O)CCl)[C@@H](C)COC` .
Output: TRUE

Input: I would be grateful if you could indicate the recorded call for ClC1(Cl)C2(Cl)C3(Cl)C4(Cl)C(Cl)(Cl)C5(Cl)C3(Cl)C1(Cl)C5(Cl)C24Cl (stereo not given) .
Output: FALSE

Input: I would be grateful if you could indicate the recorded call for CCC(C)Br (stereo not given) .
Output: FALSE

Input: I would be grateful if you could indicate the recorded call for `Oc1cccc(Cl)c1Cl` .
Output: TRUE
